target.under.test: Histamine H3 receptor (Rattus norvegicus)
assay.comment: Ability to displace [3H]Nalpha-methylhistamine from histamine H3 receptors in homogenates of rat cerebral cortex
Type: tissue-based
readout: Ki (nM)
Write the answer as a number in nM, unit excluded.

compound | reading.unit | Ki
NC(/C=C/C1CC1c1c[nH]cn1)CC1CCCCC1 (centres undefined) | nM | 0.4
CC(C)(C)CC#CC1CC1c1cnc[nH]1 (centres undefined) | nM | 0.18
N=C(Cc1ccc(Cc2cnc[nH]2)cc1)NCc1ccc(Cl)cc1 | nM | 7

Now consider a different compound.
For the record O=C(Cc1ccc(Cl)cc1)OCCCc1c[nH]cn1 , what value of Ki is listed for Histamine H3 receptor (Rattus norvegicus)?
14

====

target.under.test: Histamine H3 receptor (Rattus norvegicus, UniProt Q9QYN8)
Sequence (Q9QYN8 whole entry): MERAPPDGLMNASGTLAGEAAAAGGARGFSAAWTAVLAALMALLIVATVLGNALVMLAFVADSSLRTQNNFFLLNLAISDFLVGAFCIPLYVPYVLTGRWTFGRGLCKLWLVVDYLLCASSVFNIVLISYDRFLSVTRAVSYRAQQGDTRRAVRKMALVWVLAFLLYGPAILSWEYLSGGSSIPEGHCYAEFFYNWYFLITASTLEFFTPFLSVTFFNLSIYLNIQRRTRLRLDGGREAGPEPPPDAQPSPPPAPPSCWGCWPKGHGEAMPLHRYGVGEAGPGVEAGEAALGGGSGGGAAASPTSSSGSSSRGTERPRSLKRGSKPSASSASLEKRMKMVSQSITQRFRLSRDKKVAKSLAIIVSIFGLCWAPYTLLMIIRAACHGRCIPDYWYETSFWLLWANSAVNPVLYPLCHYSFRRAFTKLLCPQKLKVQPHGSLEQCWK
assay.comment: Ability to displace [3H]Nalpha-methylhistamine from histamine H3 receptors in homogenates of rat cerebral cortex
Format: tissue-based
readout: Ki (nM)
Write the answer as a number in nM, unit excluded.

Quick check: Ki of CC/N=C(\NCc1ccc(Cl)cc1)SCCCc1c[nH]cn1 ?
7.94

Quick check: Ki of C/N=C(/NCc1ccc(Cl)cc1)SCCCc1c[nH]cn1 ?
3.16

Quick check: Ki of Clc1ccc(CN=C(NC2CCCCC2)SCCCc2cnc[nH]2)cc1 ?
0.501

Quick check: Ki of c1nc(CCCS/C(=N/C2CCCCC2)NC2CCCCC2)c[nH]1 ?
12.6

====

Each entry below carries its recorded Kb.
target.under.test: Histamine H3 receptor (Cavia porcellus, UniProt Q9JI35)
Sequence (Q9JI35 whole entry): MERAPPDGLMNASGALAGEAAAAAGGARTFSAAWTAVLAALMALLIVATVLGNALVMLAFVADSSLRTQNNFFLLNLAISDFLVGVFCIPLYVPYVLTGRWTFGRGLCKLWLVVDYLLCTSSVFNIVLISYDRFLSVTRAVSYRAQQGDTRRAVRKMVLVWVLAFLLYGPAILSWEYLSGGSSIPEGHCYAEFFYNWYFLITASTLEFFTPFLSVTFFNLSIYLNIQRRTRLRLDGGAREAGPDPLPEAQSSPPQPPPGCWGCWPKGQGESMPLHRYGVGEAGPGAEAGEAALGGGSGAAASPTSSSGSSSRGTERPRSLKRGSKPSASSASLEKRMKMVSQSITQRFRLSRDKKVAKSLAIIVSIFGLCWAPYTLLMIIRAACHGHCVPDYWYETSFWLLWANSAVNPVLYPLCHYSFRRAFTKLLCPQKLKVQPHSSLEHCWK
assay.comment: Displacement of [3H]Nalpha-methylhistamine from histamine H3 receptors in homogenates of rat cerebral cortex
Type: tissue-based
assay.conditions: read-out: pA2 (converted)
Hi, when you answer, please include the unit after the number. Thanks!

Some entries whose results are on file:
compound | measured.result
O=C(NCCCc1c[nH]cn1)NC1CCCCC1 | 50.1 nM
Ic1ccc(COCCCc2c[nH]cn2)cc1 | 5.01 nM
NC(=NCc1ccc(Cl)cc1)SCCCc1cnc[nH]1 | 0.158 nM
Clc1ccc(CNCCCCCc2c[nH]cn2)cc1 | 1.26 nM
S=C(NC1CCCCC1)N1CCC(c2cnc[nH]2)CC1 [THIOPERAMIDE] | 1.26 nM

For the record Clc1ccc(Cc2noc(CCCc3cnc[nH]3)n2)cc1 , what value of Kb is listed for Histamine H3 receptor (Cavia porcellus, UniProt Q9JI35)?
7.94 nM

For the record c1nc(CCC2CCNCC2)c[nH]1 , what value of Kb is listed for Histamine H3 receptor (Cavia porcellus, UniProt Q9JI35)?
3.98 nM

meta.source: ChEMBL document CHEMBL1134481
